Each entry below carries its reported kon.
TARGET SYSTEM: T1, human LTBP1-proTGFβ1 complex (human, UniProt Q14766 347-1721; P01137 30-390)
T1 construct: Large latent complex: one presenting molecule disulfide-linked to a proTGFβ1 dimer; also called Hu LTBP1-proTGFβ1; huLTBP1 proTGFβ1
T1 sequence (Q14766 347-1721 limits assumed, chain 1 of 2): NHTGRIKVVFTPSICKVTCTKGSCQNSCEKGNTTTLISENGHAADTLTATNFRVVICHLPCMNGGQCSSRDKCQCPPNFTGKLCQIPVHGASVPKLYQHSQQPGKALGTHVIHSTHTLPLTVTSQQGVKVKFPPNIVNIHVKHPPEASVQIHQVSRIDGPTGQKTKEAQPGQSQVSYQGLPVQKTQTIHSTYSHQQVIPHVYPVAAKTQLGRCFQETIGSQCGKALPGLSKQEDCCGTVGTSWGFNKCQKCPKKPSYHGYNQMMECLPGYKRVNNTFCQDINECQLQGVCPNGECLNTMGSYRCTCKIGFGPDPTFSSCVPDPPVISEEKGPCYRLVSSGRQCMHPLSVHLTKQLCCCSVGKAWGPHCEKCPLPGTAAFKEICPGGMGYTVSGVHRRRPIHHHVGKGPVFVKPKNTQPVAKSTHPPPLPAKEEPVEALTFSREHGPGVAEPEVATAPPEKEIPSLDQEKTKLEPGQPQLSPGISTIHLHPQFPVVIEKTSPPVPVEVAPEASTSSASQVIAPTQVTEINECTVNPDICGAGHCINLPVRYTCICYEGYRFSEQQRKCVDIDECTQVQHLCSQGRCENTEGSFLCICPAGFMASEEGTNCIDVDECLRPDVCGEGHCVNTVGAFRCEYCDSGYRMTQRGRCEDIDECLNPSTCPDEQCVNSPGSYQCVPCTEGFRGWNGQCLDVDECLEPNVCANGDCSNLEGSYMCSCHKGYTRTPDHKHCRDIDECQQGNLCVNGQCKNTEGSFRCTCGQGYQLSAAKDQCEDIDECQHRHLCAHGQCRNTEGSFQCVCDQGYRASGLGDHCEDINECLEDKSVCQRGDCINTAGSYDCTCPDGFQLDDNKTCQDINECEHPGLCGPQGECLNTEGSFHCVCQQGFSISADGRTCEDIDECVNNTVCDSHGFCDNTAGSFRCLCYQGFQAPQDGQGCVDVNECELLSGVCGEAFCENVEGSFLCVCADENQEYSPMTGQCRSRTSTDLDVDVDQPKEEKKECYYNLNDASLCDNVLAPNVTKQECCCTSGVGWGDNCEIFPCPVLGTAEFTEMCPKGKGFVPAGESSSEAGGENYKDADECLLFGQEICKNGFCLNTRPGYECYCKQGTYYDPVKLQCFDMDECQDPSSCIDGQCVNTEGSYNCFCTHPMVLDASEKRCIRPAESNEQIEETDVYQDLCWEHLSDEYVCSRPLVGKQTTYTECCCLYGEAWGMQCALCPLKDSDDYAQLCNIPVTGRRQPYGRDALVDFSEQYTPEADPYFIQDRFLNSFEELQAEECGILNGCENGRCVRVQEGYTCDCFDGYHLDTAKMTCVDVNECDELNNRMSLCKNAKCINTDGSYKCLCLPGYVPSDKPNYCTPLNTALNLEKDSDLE
T1 sequence (P01137 30-390 limits assumed, chain 2 of 2): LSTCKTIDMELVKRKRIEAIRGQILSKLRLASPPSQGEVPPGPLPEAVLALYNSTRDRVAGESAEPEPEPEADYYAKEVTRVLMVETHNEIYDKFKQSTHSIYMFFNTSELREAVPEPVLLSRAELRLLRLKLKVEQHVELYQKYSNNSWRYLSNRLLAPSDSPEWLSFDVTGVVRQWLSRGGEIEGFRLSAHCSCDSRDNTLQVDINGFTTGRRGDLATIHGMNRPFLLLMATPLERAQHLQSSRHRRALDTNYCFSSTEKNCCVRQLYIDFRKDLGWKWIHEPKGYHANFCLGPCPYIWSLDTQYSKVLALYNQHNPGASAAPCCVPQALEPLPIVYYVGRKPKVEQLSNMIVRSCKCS
EXPERIMENT DESCRIPTION: Octet BLI, IgG captured
Unit M⁻¹ s⁻¹ implied. Number only.

In the examples that follow, each entry is paired with its recorded kon.
[
  {
    "BINDER": "SR-AB34 (antibody, IgG1, V domains shown, Cycle 3, lineage SR-AB22) VH: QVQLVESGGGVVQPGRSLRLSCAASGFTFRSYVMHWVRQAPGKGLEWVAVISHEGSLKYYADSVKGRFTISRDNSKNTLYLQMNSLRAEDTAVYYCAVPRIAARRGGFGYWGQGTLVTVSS VL: NFMLTQPHSVSESPGKTVTISCTRSSGNIDNNYVQWYQQRPGSSPTTVIYEDNQRPSGVPDRFSGSIDSSSNSASLTISGLKTEDEADYYCQSYDYDAQGVVFGGGTKLTVL",
    "UNIT": "M⁻¹ s⁻¹",
    "REPORTED": 259000
  },
  {
    "BINDER": "SR-AB42 (antibody, IgG1, V domains shown, Cycle 3, lineage SR-AB23) VH: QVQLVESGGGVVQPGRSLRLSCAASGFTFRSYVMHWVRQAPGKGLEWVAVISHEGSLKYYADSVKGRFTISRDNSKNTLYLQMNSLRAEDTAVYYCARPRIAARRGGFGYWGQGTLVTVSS VL: NFMLTQPHSVSESPGKTVTISCTRSSGNIDNNYVQWYQQRPGSSPTTVIYEDNQRPSGVPDRFSGSIDSSSNSASLTISGLKTEDEADYYCQSYDYDTQGVVFGGGTKLTVL",
    "UNIT": "M⁻¹ s⁻¹",
    "REPORTED": 154000
  },
  {
    "BINDER": "SR-AB45 (antibody, IgG1, V domains shown, Cycle 3, lineage SR-AB23) VH: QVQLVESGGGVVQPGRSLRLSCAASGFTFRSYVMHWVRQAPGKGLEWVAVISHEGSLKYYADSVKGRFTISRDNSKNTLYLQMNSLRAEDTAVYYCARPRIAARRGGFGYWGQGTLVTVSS VL: NFMLTQPHSVSESPGKTVTISCTRSSGAIDDNYVQWYQQRPGSSPTTVIYEDFQRPSGVPDRFSGSIDSSSNSASLTISGLKTEDEADYYCQSYDDDLQGVVFGGGTKLTVL",
    "UNIT": "M⁻¹ s⁻¹",
    "REPORTED": 310000
  },
  {
    "BINDER": "SR-AB62 (antibody, IgG1, V domains shown, Cycle 3, lineage SR-AB24) VH: QLQLQESGPGLAKPSETLSLTCTVSGGSIRSSSYYWGWIRQPPGKGLEWIGSISYSATTYYNPSLKSRVTISVDTSKNQFSLKLSSVTAADTAVYYCASDPSYDSAAGMDVWGQGTTVTVSS VL: DIQMTQSPSSLSASVGDRVTITCRASKVISSYLNWYQQKPGKAPKLLIYYASSLQSGVPSRFSGSGSGTDFTLTISSLQPEDFATYYCQQSNDWPFTFGGGTKVEIK",
    "UNIT": "M⁻¹ s⁻¹",
    "REPORTED": 140000
  },
  {
    "BINDER": "SR-AB38 (antibody, IgG1, V domains shown, Cycle 3, lineage SR-AB22) VH: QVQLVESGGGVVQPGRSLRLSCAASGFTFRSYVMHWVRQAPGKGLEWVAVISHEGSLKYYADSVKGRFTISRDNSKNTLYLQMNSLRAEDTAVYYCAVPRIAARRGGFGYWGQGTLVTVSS VL: NFMLTQPHSVSESPGKTVTISCTRSSGSIDNNYVQWYQQRPGSSPTTVIYEDFIRPSGVPDRFSGSIDSSSNSASLTISGLKTEDEADYYCQSYDDDLQGVVFGGGTKLTVL",
    "UNIT": "M⁻¹ s⁻¹",
    "REPORTED": 327000
  },
  {
    "BINDER": "SR-AB63 (antibody, IgG1, V domains shown, Cycle 3, lineage SR-AB26) VH: QLQLQESGPGLVKPSETLSLTCTVSGGSIRSSSYYWGWIRQPPGKGLEWIGSISYSATTYYNPSLKSRVTISVDTSKNQFSLKLSSVTAADTAVYYCAGDPSYDSIAGMQVWGQGTTVTVSS VL: DIQLTQSPSSLSASVGDRVTITCRASQSISSYLNWYQQKPGKAPKLLIYAASNLQSGVPSRFSGSGSGTDFTLTISSLQPEDFATYYCQQSFDWPLTFGGGTKVEIK",
    "UNIT": "M⁻¹ s⁻¹",
    "REPORTED": 118000
  }
]

Q. What does the record list as kon for SR-AB44 (antibody, IgG1, V domains shown, Cycle 3, lineage SR-AB23) VH: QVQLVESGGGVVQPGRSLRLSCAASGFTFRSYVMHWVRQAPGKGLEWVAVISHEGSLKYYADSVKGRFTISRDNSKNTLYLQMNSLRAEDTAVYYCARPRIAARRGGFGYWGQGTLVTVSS VL: NFMLTQPHSVSESPGKTVTISCTRSHGNIDDNYVQWYQQRPGSSPTTVIYEDNVRPSGVPDRFSGSIDSSSNSASLTISGLKTEDEADYYCQSYDSDNQLVVFGGGTKLTVL ?
A. 280000

Q. What does the record list as kon for SR-AB31 (antibody, IgG1, V domains shown, Cycle 3, lineage SR-AB22) VH: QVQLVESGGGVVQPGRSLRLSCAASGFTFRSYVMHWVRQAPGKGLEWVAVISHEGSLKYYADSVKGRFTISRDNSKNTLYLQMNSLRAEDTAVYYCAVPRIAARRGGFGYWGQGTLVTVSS VL: NFMLTQPHSVSESPGKTVTISCTRSSGNIDNNYVQWYQQRPGSSPTTVIYEDNQRPSGVPDRFSGSIDSSSNSASLTISGLKTEDEADYYCQSYDFNNQGVVFGGGTKLTVL ?
A. 240000

Q. What does the record list as kon for SR-AB43 (antibody, IgG1, V domains shown, Cycle 3, lineage SR-AB23) VH: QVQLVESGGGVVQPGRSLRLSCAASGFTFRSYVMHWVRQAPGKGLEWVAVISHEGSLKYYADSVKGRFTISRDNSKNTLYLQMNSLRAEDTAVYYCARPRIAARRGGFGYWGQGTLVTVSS VL: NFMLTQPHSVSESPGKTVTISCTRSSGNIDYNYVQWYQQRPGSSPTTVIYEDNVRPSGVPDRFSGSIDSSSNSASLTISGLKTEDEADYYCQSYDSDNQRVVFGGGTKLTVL ?
A. 244000

Q. What does the record list as kon for SR-AB41 (antibody, IgG1, V domains shown, Cycle 3, lineage SR-AB23) VH: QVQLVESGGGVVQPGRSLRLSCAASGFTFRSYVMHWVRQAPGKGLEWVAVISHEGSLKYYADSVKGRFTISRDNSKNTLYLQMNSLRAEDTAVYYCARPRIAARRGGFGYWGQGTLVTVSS VL: NFMLTQPHSVSESPGKTVTISCTRSSGNIDNNYVQWYQQRPGSSPTTVIYEDNQRPSGVPDRFSGSIDSSSNSASLTISGLKTEDEADYYCQSYDYDNQAVVFGGGTKLTVL ?
A. 203000
